- SUBJECT_OF_TEST: Steroidogenic factor 1 (Homo sapiens, UniProt Q13285)
- Sequence (Q13285 whole entry): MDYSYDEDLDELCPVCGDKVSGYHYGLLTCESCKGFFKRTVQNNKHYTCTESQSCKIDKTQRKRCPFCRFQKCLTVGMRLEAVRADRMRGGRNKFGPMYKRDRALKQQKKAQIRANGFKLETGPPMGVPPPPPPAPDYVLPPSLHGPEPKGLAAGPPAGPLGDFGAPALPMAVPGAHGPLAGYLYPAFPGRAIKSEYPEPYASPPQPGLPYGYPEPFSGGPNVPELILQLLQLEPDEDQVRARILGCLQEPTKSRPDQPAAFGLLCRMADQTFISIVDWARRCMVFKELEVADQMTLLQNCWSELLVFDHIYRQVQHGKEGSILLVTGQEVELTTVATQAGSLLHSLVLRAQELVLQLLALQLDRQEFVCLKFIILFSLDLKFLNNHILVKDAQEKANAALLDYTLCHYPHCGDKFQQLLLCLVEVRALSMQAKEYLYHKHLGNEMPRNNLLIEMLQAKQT
- ASSAY_SUMMARY: Counterscreen for inverse agonists of the liver receptor homolog-1 (LRH-1; NR5A2): Luminescence-based cell-based high throughput dose response assay to identify inverse agonists of the Steroidogenic Factor 1 Nuclear Receptor (SF1; NR5A1).
- Assay type: functional
Activity calls are given as the source filed them. Cut-off read from the data, not from the text of the source: active = IC50 of 10 µM or less and inactive = more.
Outcomes: 1 for active, 0 for inactive

{"COMPOUND": "N#Cc1cc([N+](=O)[O-])ccc1NC(=O)COC(=O)C1CCC(=O)N1 (centres undefined)", "CLASS_ASSIGNMENT": 1}
{"COMPOUND": "COc1ccc(C2(C)NC(=O)N(CC(=O)Nc3ccc(C)cc3Br)C2=O)cc1OC (centres undefined)", "CLASS_ASSIGNMENT": 0}
{"COMPOUND": "COc1ccc(S(=O)(=O)N2CCN(CC(=O)Nc3ccc(C)c(F)c3)CC2)cc1", "CLASS_ASSIGNMENT": 1}
{"COMPOUND": "COC(=O)c1ccc(NC(=O)CSc2nncn2-c2cccnc2)cc1", "CLASS_ASSIGNMENT": 0}
{"COMPOUND": "CCOc1ccc(NC(=O)CSc2nnc(C(C)C)n2CC)cc1", "CLASS_ASSIGNMENT": 1}
{"COMPOUND": "O=C(Nc1nc2c(Cl)cccc2s1)c1ccc([N+](=O)[O-])o1", "CLASS_ASSIGNMENT": 1}
{"COMPOUND": "COCCn1c(C)cc(/C=C(\\C#N)C(=O)OCC(=O)Nc2ccc(S(N)(=O)=O)cc2)c1C", "CLASS_ASSIGNMENT": 1}
{"COMPOUND": "CC(O)(c1cccc(F)c1)c1nc(-c2ccc(S(C)(=O)=O)cc2)cs1 (centres undefined)", "CLASS_ASSIGNMENT": 1}
{"COMPOUND": "NS(=O)(=O)c1ccc(O)c(NC(=O)c2ccc([N+](=O)[O-])o2)c1", "CLASS_ASSIGNMENT": 1}

The reported measurements were obtained from ChEMBL document CHEMBL1201862.
